Endpoint Label: melting point (°C)

Look over these answered cases.
> print(dat)
                                   compound  readout.units  result.value
1                         COc1ccc(C#N)cc1Br             °C           122
2  CC(=O)OC1CCC2(C)C(CC(=O)C3C2CCC2(C)C(OC(=O)c4ccccc4)CCC32)C1 (stereo unspecified)             °C           175
3                  CC(C)N(C(=O)CCl)c1ccccc1             °C            77

A: CNC(=O)COC(=O)c1ccccc1
B: NNc1ncccc1[N+](=O)[O-]
Could you kindly indicate whether A or B has the higher melting point value? Refer to your chosen item by its label in the answer.
B

---

Endpoint Label: melting point (°C)

Below, each entry is followed by its recorded melting point result.
> print(dat)
                                   molecule  result.value
1  COc1nc(C)nc(NC(=O)NS(=O)(=O)c2ccccc2OCCCl)n1           189
2  CNCC(O)c1cccc(O)c1 (configuration not stated)           170
3                        FC(F)=C(F)C(F)(F)F          -156
4                        Clc1ccc(Br)c(Cl)n1            70
5                O=C(O)COc1cc(Cl)c(Cl)cc1Cl           156

P: CCCCCCCOC(=O)CCCCCCC
Q: O=c1c(O)c(-c2ccc(O)c(O)c2)oc2cc(OC3OC(CO)C(O)C(O)C3O)cc(O)c12 (configuration not stated)
R: CC(CCc1oc2ccc(Br)cc2c1-c1ccc(C)o1)=NO
Put the items in order so that reported melting point rises from first to last. Hello, could you send the labels back in the order asked? Thank you.
P, R, Q
(P: -10.6 °C, R: 132 °C, Q: 248 °C)

---

Endpoint Label: melting point (°C)

Take a look at these entries with their results.
> print(dat)
                                   molecule  result.value
1                    Cc1c(F)ccc(C(=O)O)c1Cl           188
2  O=C(C1=NOC2C(=O)N(c3cc(Cl)ccc3Cl)C(=O)C12)c1ccccc1 (stereo not given)           185
3                       CCc1cc2ccccc2ccc1=O            49
4             Cc1ccc2cc3c(ccc4ccccc43)cc2c1           152
5         CCCCc1ccc(NC(=O)Oc2ccc(OC)cc2)cc1           143
6              Clc1cc(Cl)c2cc(Cl)cc(Cl)c2c1           180
7                             C=CN(C)C(C)=O           -36
8      COc1ccc(N=[N+]([O-])c2ccc(OC)cc2)cc1           132

a: CCc1cc(Cc2cc(CC)cc(C(C)(C)C)c2O)c(O)c(C(C)(C)C)c1
b: CC(C(=O)Nc1ccc(F)c(Cl)c1)(C(F)(F)F)C(F)(F)F
c: Cc1ccc([N+](=O)[O-])c(Cl)c1
// sort entries: melting point, high to low Form field (ranking): labels in requested order.
a, b, c
(a: 120 °C, b: 72 °C, c: 24 °C)

P: CCCCC(=O)c1ccc(N)cc1
Q: CCCCCCCCCCCCCBr
R: N#Cc1c(O)cccc1F
Sort (3 molecules) by melting point: min first. Arrange the labels as the request states and list them.
Q, P, R

1: Cn1c(=O)c(C2=NNC(=O)C2=C2c3ccccc3-c3ccccc32)c(O)c2ccccc21
2: CC(C)(C)c1cc(C(C)(C)C)cc(C(C)(C)C)c1
melting point comparison. Which is larger, 1 or 2 ? I would appreciate it if you answered with the label of your choice.
1

---

Endpoint Label: melting point (°C)

# example entries with known answers
> print(dat)
                                   compound  readout.units  result.value
1  CC(OCc1ccccc1)C(NC(=O)OC(C)(C)C)C(=O)O (configuration not stated)             °C           116
2  O=C(CNc1ccc(NCC(=O)c2ccccc2)cc1)c1ccccc1             °C           151

a: N#CCCN1CCN(CCC#N)CC1
b: S=c1oc(-c2cc3ccccc3o2)nn1CCl
// max by melting point over [ a , b ] API: response body contains the label of the selected item.
b
(b: 300 °C, a: 65 °C)

A: CC(CN(C)C)CN1c2ccccc2Sc2ccccc21 (configuration not stated)
B: Nc1ncnc2c1ncn2Cc1c(F)cccc1Cl
Which record shows the lower melting point: the first, A , or the second, B ? Selection: enter the item's label.
A
(A: 68 °C, B: 245 °C)

P: CCOC(=O)CCC(C)C1CCC2C3C(=O)CC4CC(=O)CCC4(C)C3CC(=O)C12C (configuration not stated)
Q: CC(C=CC=C(C)C=CC1=C(C)C=CCC1(C)C)=CC=O
Which has the higher melting point, P or Q ? Give the label of your selection.
P
(P: 222 °C, Q: 77.5 °C)

P: CNCC(=O)O
Q: CCCCC(C(=O)O)C(=O)N(Nc1ccccc1)c1ccccc1 (configuration not stated)
R: CCOC(=O)CC(=O)OCC
Arrange these 3 compounds in increasing order of melting point. The labels, placed in the requested order, form the answer.
R, Q, P
(R: -50 °C, Q: 116 °C, P: 208 °C)

---

Endpoint Label: melting point (°C)

Example entries begin here.
> print(dat)
                               molecule  endpoint.label  readout.units  result.value
1  O=C(O)C1CC=CCC1 (stereo unspecified)   melting point             °C            17
2                    NC(=S)c1ccc(F)cc1F   melting point             °C           131
3                      Cc1nc(C=O)c[nH]1   melting point             °C           165
4            CCc1ccc(N2C(=O)C=CC2=O)cc1   melting point             °C            66
5                       O=Cc1ccc(Br)cc1   melting point             °C            67
6    CN(CC=CC#CC(C)(C)C)Cc1cccc2ccccc12   melting point             °C           196

P: CNC(C)C1C(O)CC2(C)C3CCC4C(C)(C)C(NC)CCC45CC35CCC12C (stereo unspecified)
Q: CCOC
Among P and Q , whose measured melting point is the smaller figure? Please reply using the label of the selected record.
Q

---

Endpoint Label: melting point (°C)

The examples below pair each entry with its known result.
> print(dat)
                                compound  readout.units  result.value
1   C[Si](C)(Cl)O[Si](C)(C)O[Si](C)(C)Cl             °C           -53
2  CC1CC(O)CC(C)(C)C1 (stereo not drawn)             °C          55.8
3                   O=C(CCl)OCCOC(=O)CCl             °C          45.5

1: O=S(=O)(CCCl)c1ccc(F)cc1
2: OCCNc1ccccc1
Short answer wanted: higher melting point, 1 or 2 ? // caller expects the label of the chosen entry
1

A: CCOC(=O)CC(=O)c1ccc([N+](=O)[O-])cc1
B: CC(C)NC(=O)COC(=O)c1ccccc1
# return whichever of A and B has the smaller melting point I would appreciate it if you answered with the label of your choice.
A
(A: 72 °C, B: 130 °C)

---

Endpoint Label: melting point (°C)

The examples below pair each entry with its known result.
> print(dat)
                                   compound  endpoint.label  result.value
1  CNC(=O)Oc1ccc2c(c1)C1(C)CCN(C)C1N2C (stereo unspecified)   melting point           106
2                CC(=O)NC1CCSC1=O (racemic)   melting point           110

P: CC(C)NCC(O)COc1cccc2ccccc12 (stereo unspecified)
Q: CCc1cccc(C)c1N(COC(C)C)C(=O)CCl
Two entries are listed, P and Q . Which one carries the higher melting point? // output: label of the selected item
P
(P: 162 °C, Q: 21.6 °C)

---

Endpoint Label: melting point (°C)

Worked cases, answers included:
> print(dat)
                                   compound  endpoint.label  readout.units  result.value
1                             Oc1cc(F)ccc1F   melting point             °C            38
2         CCCCCCCCCCCCCCCCOCCCCCCCCCCCCCCCC   melting point             °C            55
3  FC(F)(F)C1(F)C(F)(F)C(F)(F)C(F)(F)C(F)(C(F)(F)F)C1(F)F (stereo not drawn)   melting point             °C           -55

I: OCCC(F)(F)C(F)(F)C(F)(F)C(F)(F)C(F)(F)C(F)(F)C(F)(F)C(F)(F)C(F)(F)C(F)(F)F
II: Nc1c(Cl)cc(OC(F)(F)F)cc1Cl
III: Nc1ccc(Nc2ccc(N)cc2)cc1
IV: CC1=NN(c2ccccc2)C(=O)C1C(c1ccc(O)cc1)C1C(=O)N(c2ccccc2)N=C1C (stereo not drawn)
V: C=C1N(C)c2ccccc2C1(C)C
With regard to melting point, arrange the entries in ascending order, please. Ranked list of labels, please, in the requested order.
V, II, I, III, IV

P: COc1cc2c(cc1C)C(=O)C2
Q: CCC(=O)c1ccc(O)cc1
R: COCC(C)OC(C)=O (stereo not drawn)
Reorder: melting point, max to min. To answer, arrange all of the labels according to the requested order.
Q, P, R
(Q: 150 °C, P: 88 °C, R: -87 °C)

a: COC(=O)c1ccc(OC)c([N+](=O)[O-])c1
b: CC(C=CC=C(C)C=CC1(O)C(C)(C)CCCC1(C)O)=CC=CC=C(C)C=CC(=O)O (stereo not drawn)
Which shows the larger melting point value: a or b ? Record your answer as the label of the chosen record.
b

1: O=Nc1c(Cl)cccc1Cl
2: NNc1ccc(F)c(Cl)c1
For 1 and 2 , which recorded melting point is lower? Identify your selection by its label.
2

a: COC(=O)COC(=O)c1ccc2c(O)c(C(=O)OC)oc2c1
b: CC(=O)OC1(C(C)=O)CCC2C3C=C(Cl)C4=CC(=O)CCC4(C)C3CCC21C (stereo not drawn)
Given the listed items, does a or b have the lesser reported melting point? Give the label under which the chosen entry appears.
a
